// provenance: the RNAGym collection of RNA variant scans (doi:10.7554/elife.80360)

Known self-cleavage of a selection of variants
B1: HDV Ribozyme (parent)
chain: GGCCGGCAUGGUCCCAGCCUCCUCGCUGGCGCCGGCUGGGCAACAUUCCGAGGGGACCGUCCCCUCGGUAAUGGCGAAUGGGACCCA

variants of: B1; assay: self-cleavage, relative activity (ratio to wild type); higher = more cleavage; co-transcriptional
RESULT_TYPE: self-cleavage

INSERT INTO measurements (mutation_id, result) VALUES
  ('U47A G52A', 0.975),
  ('C4G C24A', 0.102),
  ('U23C G39C', 0.244),
  ('G53A A77C', 0.251),
  ('C22U U23G', 0.246),
  ('G73C A77C', 0.287),
  ('C30A A71G', 0.517),
  ('G35C G55U', 0.0615),
  ('G17A U69C', 0.786),
  ('A8C C14A', 0.375),
  ('C66U G73C', 0.528),
  ('G59C C84U', 0.774),
  ('A16U C32G', 0.156),
  ('C13G A42G', 0.178),
  ('C7U G29A', 0.0906),
  ('C41G G80A', 0.431),
  ('C48G U69A', 0.956),
  ('G50C G80U', 0.225),
  ('U20A G50U', 0),
  ('C58U C62U', 0.867),
  ('A51C G54A', 0.716),
  ('G2A U46G', 0.0817);
